# assayed system: Ribosomal protein S6 kinase alpha-6 (Homo sapiens, UniProt Q9UK32)
# Sequence (Q9UK32 whole entry): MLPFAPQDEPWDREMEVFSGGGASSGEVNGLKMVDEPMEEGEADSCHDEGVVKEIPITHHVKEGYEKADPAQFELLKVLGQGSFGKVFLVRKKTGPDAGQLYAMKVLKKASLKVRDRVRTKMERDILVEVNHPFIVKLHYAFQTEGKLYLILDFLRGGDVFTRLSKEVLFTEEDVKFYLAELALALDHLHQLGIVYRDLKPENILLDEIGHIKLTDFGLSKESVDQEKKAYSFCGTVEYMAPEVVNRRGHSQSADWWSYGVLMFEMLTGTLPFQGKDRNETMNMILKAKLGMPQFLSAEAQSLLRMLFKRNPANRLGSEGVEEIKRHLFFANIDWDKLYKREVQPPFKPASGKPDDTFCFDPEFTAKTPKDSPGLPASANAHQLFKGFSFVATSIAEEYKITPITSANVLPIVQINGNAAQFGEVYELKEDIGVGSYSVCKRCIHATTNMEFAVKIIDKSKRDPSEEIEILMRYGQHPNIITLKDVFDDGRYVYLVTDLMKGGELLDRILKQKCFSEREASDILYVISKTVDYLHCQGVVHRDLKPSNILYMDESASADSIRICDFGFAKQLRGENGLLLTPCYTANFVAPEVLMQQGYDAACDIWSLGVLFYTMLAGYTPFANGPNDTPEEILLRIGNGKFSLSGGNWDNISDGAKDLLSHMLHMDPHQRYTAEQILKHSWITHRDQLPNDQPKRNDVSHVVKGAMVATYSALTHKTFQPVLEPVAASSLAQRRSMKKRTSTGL
measured attribute: IC50

structure as smiles: C=CC(=O)N1CCC(Cn2cc(-c3ccc4c(c3)OCO4)c3c(N)ncnc32)CC1
assayed system: Ribosomal protein S6 kinase alpha-6 (Homo sapiens, UniProt Q9UK32)
measured attribute: IC50
meas value: > 10 µM

====

# assayed system: Dual specificity mitogen-activated protein kinase kinase 2 (Homo sapiens, UniProt P36507)
# Sequence (P36507 whole entry): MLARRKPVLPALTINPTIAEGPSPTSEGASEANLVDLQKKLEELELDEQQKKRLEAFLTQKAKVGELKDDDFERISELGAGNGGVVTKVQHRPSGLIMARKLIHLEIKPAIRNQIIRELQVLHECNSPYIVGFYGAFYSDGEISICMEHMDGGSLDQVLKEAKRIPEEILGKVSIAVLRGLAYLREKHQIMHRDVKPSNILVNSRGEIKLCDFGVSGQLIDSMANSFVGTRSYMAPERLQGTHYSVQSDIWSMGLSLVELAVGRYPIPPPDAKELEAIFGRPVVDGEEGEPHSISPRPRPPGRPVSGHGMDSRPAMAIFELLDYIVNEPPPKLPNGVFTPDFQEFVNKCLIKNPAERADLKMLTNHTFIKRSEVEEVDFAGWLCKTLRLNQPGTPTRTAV
# test summary: Inhibition of MEK2 (unknown origin)
measured attribute: IC50

structure as smiles: C=CC(=O)N1CCC(Cn2cc(-c3ccc4c(c3)OCO4)c3c(N)ncnc32)CC1
measured attribute: IC50
meas value: > 10 µM

====

# assayed system: Dual specificity mitogen-activated protein kinase kinase 6 (Homo sapiens, UniProt P52564)
# Sequence (P52564 whole entry): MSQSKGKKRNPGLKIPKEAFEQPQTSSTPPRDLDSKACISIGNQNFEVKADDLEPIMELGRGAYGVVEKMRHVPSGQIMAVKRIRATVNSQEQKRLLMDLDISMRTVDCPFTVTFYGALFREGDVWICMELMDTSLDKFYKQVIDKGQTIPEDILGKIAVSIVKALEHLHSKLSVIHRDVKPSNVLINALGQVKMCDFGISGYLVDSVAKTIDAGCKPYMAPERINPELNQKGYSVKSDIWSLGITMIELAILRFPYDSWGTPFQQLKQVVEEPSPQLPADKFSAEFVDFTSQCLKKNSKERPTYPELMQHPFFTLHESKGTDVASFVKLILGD
# test summary: Inhibition of MKK6 (unknown origin)

structure as smiles: C=CC(=O)N1CCC(Cn2cc(-c3ccc4c(c3)OCO4)c3c(N)ncnc32)CC1
assayed system: Dual specificity mitogen-activated protein kinase kinase 6 (Homo sapiens, UniProt P52564)
IC50: > 10 µM

====

# assayed system: NT-3 growth factor receptor (Homo sapiens)
# Sequence (Q16288 whole entry): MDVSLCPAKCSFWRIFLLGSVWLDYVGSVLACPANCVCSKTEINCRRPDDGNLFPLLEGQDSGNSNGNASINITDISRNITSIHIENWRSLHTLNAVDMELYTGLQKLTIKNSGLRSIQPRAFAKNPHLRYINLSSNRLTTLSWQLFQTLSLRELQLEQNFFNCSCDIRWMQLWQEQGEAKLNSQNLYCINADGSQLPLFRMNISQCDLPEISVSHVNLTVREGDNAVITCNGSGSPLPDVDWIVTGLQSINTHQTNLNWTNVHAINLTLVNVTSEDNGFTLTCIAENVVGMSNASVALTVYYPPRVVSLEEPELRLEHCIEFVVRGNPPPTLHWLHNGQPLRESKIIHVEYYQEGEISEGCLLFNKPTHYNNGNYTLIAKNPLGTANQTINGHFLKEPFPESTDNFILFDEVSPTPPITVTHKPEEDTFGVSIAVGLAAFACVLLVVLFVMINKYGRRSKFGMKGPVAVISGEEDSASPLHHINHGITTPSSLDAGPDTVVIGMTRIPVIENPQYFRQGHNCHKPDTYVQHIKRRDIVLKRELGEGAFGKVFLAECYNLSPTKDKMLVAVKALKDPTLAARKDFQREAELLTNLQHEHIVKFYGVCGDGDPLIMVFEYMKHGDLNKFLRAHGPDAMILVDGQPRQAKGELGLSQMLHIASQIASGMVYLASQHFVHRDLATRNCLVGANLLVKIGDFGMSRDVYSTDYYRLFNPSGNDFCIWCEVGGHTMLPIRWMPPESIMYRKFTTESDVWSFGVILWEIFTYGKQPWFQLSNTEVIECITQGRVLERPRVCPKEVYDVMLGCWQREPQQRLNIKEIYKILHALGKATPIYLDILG

structure as smiles: C=CC(=O)N1CCC(Cn2cc(-c3ccc4c(c3)OCO4)c3c(N)ncnc32)CC1
IC50: > 10 µM

====

# assayed system: Tyrosine-protein kinase JAK3 (Homo sapiens, UniProt P52333)
# test summary: Inhibition of recombinant human JAK3 using Ulight-CAGAGAIETDKEYYTVKD as substrate incubate for 60 mins by LANCE assay
pIC50: −log10 of the molar value.

structure as smiles: C=CC(=O)N1CCC(Cn2cc(-c3ccc4c(c3)OCO4)c3c(N)ncnc32)CC1
pIC50: < 5.00

====

# assayed system: Tyrosine-protein kinase CSK (Homo sapiens, UniProt P41240)
# Sequence (P41240 whole entry): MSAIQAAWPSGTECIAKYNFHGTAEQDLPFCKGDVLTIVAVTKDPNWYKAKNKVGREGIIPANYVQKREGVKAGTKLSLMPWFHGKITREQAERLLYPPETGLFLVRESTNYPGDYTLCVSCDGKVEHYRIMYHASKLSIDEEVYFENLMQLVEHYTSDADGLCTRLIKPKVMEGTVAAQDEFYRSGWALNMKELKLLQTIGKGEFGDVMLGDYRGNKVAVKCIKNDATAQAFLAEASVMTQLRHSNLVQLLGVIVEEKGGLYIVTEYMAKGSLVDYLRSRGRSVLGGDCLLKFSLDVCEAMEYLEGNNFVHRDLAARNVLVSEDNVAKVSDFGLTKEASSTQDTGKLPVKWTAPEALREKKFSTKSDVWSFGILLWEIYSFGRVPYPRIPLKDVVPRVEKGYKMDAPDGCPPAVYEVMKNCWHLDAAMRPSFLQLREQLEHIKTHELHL

structure as smiles: C=CC(=O)N1CCC(Cn2cc(-c3ccc4c(c3)OCO4)c3c(N)ncnc32)CC1
IC50: > 10 µM

====

# assayed system: Tyrosine-protein kinase Blk (Homo sapiens, UniProt P51451)
# Sequence (P51451 whole entry): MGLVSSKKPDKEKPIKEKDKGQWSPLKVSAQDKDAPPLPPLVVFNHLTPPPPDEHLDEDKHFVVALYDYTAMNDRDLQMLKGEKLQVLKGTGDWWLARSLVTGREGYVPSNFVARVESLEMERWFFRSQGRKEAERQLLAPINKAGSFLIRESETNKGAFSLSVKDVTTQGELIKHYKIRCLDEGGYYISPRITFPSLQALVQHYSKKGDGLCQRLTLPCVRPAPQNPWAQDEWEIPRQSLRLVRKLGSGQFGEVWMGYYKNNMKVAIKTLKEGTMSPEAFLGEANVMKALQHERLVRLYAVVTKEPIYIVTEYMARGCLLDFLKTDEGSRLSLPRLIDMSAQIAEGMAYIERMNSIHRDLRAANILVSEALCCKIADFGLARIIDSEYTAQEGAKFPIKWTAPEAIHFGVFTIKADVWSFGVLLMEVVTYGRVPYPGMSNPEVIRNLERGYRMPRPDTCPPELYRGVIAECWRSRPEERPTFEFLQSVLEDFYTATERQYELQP

structure as smiles: C=CC(=O)N1CCC(Cn2cc(-c3ccc4c(c3)OCO4)c3c(N)ncnc32)CC1
IC50: 504 nM

====

# assayed system: Tyrosine-protein kinase Fgr (Homo sapiens)
# Sequence (P09769 whole entry): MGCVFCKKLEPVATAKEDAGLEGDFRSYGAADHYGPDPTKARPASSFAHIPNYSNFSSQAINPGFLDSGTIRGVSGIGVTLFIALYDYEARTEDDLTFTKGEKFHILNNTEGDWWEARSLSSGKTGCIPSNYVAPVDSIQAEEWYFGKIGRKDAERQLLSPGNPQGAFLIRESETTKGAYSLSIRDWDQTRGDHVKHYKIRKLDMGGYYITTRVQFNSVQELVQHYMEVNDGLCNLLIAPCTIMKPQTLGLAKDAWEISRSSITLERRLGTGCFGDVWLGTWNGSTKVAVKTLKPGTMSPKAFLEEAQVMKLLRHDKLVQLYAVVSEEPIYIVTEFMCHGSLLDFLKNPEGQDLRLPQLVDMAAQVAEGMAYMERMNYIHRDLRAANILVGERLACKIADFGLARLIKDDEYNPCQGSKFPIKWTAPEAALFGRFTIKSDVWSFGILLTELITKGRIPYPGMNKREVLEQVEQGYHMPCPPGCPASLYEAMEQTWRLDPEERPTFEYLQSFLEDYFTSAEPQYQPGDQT
measured attribute: IC50 (nM)

structure as smiles: C=CC(=O)N1CCC(Cn2cc(-c3ccc4c(c3)OCO4)c3c(N)ncnc32)CC1
assayed system: Tyrosine-protein kinase Fgr (Homo sapiens)
measured attribute: IC50
quantity unit: nM
meas value: 657

====

# assayed system: Calcium/calmodulin-dependent protein kinase kinase 2 (Homo sapiens)
# Sequence (Q96RR4 whole entry): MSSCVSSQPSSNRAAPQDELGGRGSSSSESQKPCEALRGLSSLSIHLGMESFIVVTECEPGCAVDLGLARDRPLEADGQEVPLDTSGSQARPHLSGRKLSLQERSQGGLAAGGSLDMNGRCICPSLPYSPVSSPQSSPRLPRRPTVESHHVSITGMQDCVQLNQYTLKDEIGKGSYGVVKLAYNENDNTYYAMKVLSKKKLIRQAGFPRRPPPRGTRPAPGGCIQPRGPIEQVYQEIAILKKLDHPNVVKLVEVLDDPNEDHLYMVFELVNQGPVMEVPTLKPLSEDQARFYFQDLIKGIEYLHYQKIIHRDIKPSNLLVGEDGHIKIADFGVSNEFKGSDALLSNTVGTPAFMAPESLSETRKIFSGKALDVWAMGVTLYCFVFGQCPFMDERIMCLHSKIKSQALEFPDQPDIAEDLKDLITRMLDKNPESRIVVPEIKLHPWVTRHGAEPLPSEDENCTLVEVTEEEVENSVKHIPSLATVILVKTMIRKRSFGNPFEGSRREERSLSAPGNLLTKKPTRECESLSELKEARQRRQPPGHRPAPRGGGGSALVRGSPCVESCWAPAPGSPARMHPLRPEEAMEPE
# test summary: Inhibition of CAMKK2 (unknown origin)
pIC50: −log10 of the molar value.
measured attribute: pIC50

structure as smiles: C=CC(=O)N1CCC(Cn2cc(-c3ccc4c(c3)OCO4)c3c(N)ncnc32)CC1
meas value: < 5.00
